# System: A498
# Measurement Protocol: NCI tumour cell line growth inhibition, 48 h
Activity calls are given as the source filed them. Rule as the data show it: active = GI50 up to about 1.1 µM and inactive = higher.
Choose one outcome from this list and give only that: yes (1) for active, no (0) for inactive

Reference set (3 entries):
1) Cn1c(=O)c2c(O)cc(N)nc2n(C)c1=O = no (0)
2) Cn1c(=O)n2c(=O)n(C)c(=O)n2c1=O = no (0)
3) C=CCO/N=C(\OC(=O)c1ccc([N+](=O)[O-])cc1)c1ccccc1 = no (0)

For this compound, state the assay outcome: "NCCP(=O)(O)O" no (0)

For this compound, state the assay outcome: "C[C@@H](NC(=O)Nc1cccc(C(=O)Nc2cc(C(C)(C)C)ccc2C(=O)O)n1)c1ccccc1" no (0)

For this compound, state the assay outcome: "Cc1nnc(N/N=C2/C(=O)Nc3c(Cl)cc(Cl)cc32)n1N" no (0)

====

# Test system: OVCAR-3
# Measurement Protocol: NCI tumour cell line growth inhibition, 48 h
Activity calls are given as the source filed them. Rule as the data show it: active = GI50 up to about 1.1 µM and inactive = higher.
Observable: GI50

Guide cases for GI50, answers given:
1) Cc1cc(=O)c2ccccc2n1CCCCCCCCCCn1c(C)cc(=O)c2ccccc21 = 37.3 µM (inactive)
2) C=C(Br)CNCC(=C)Br = 30.8 µM (inactive)
3) Nc1nc(Cl)c(N)c(NCC2(CO)CCC2)n1 = > 100 µM (inactive)
4) COC(=O)C1C(=O)N(CCc2c[nH]c3ccccc23)C[C@@H]2CCC(=O)C[C@H]12 (stereo not given in full) = > 100 µM (inactive)

Below: the item to evaluate.
Return reported GI50; argument: CN1C=C(C(N)=O)C2CC(O)[C@@](NC(=O)CS(N)(=O)=O)(C(=O)O)C2C1 (stereo not given in full) 17.5 µM (inactive)

====

# Tested on: DMS-273
# Measurement Protocol: NCI tumour cell line growth inhibition, 48 h
Activity calls are given as the source filed them. No stated cut-off is given here; in the data, active = GI50 up to about 1.1 µM and inactive = higher.
Choose one outcome from this list and give only that: active, inactive

1) N#CC(C(=O)CCC(=O)C(C#N)c1ccccc1)c1ccccc1 (centres undefined) = inactive

For this molecule, state the assay outcome: "O=C(O)CSc1nnc(COc2ccccc2)n1-c1ccccc1" inactive

For this molecule, state the assay outcome: CC12CCC[C@@](C)(C(=O)OC3OC(CO)C(O)C(O)C3O)[C@H]1CCC13CC4CC(OC4(CO)[C@H]1O)[C@@H]23 (some centres undefined) inactive

For this molecule, state the assay outcome: COC(=O)C1C(=O)N(CCc2c[nH]c3ccccc23)C[C@@H]2CCC(=O)C[C@H]12 (some centres undefined) inactive

For this molecule, state the assay outcome: "N=C(N)n1ncc(Cl)c(Cl)c1=O" inactive

For this molecule, state the assay outcome: Cc1cc(O)nc(NN2C(Cl)C(=O)C2c2ccccc2O)n1 (centres undefined) inactive

For this molecule, state the assay outcome: "CCOC(=O)c1oc2ccc([N+](=O)[O-])c3c2c1CCC3" inactive

For this molecule, state the assay outcome: CC(=O)NC(C=O)C(O[C@H](C)C(=O)NC(C)C(=O)NC(CCC(N)=O)C(=O)OCc1ccccc1)C(O)C(O)COC(=O)CCNc1c2ccccc2nc2cccc([N+](=O)[O-])c12 (some centres undefined) inactive

For this molecule, state the assay outcome: "Cc1cc(C)[n+](CCOc2ccc(/C(=C(/Cl)c3ccccc3)c3ccccc3)cc2)c(C)c1.[O-][Cl+3]([O-])([O-])[O-]" active
